Where these numbers come from: PubChem BioAssay AID504332

System Under Test: Histone-lysine N-methyltransferase EHMT2 (Homo sapiens)
Assay Overview: qHTS Assay for Inhibitors of Histone Lysine Methyltransferase G9a; note: nearly all actives have a fitted effect of over 75% in size
Cond: G9a H3K9 monomethylation, AlphaScreen, 2 h; series mostly up to 59 µM
About 31,000 (8.9%) of roughly 350,000 compounds were called active. Roughly 15% stayed inconclusive and do not appear here. Calls come from the whole dose curve; as a rule, active = well fitted inhibition curve with a large enough effect; inconclusive = small, poorly fitted or top-dose-only effect; inactive = no such curve, though single readings can be large or run the other way. The sample as a whole holds a higher share of actives than the screen did.
Response enum: active, inactive

Enquiry: Kindly provide the recorded test outcome for the following compound: `COc1ccc(CNc2nc(-c3ccccc3)nn2C(=O)c2ccccc2OC)cc1`
Return: inactive

Enquiry: Kindly provide the recorded test outcome for the following compound: `Cc1ccc(CSc2oc(-c3cccs3)nc2S(=O)(=O)c2ccc(C)cc2)cc1`
Return: inactive

Enquiry: Kindly provide the recorded test outcome for the following compound: `O=S(=O)(c1ccccc1)c1nc(-c2ccccc2F)oc1NCc1cccnc1`
Return: inactive

Enquiry: Kindly provide the recorded test outcome for the following compound: `O=C(COc1ccc(Cl)cc1)Nc1ccc(-c2nc3cc(Cl)ccc3o2)c(O)c1`
Return: inactive

Enquiry: Kindly provide the recorded test outcome for the following compound: `COc1ccc(C)cc1NC(=O)C(=O)NCCc1sc(-c2cccc(C)c2)nc1C`
Return: inactive

Enquiry: Kindly provide the recorded test outcome for the following compound: CCOc1ccccc1C(=O)Nc1ccc(S(=O)(=O)N2CCCCC2c2cccnc2)cc1 (centres undefined)
Return: inactive

Enquiry: Kindly provide the recorded test outcome for the following compound: `O=[N+]([O-])/C(N=Nc1ccccc1)=N\Nc1ccccc1`
Return: active

Enquiry: Kindly provide the recorded test outcome for the following compound: `COc1ccc(CCNC(=O)CCCn2c(=O)c3ccccc3n(Cc3ccc(F)cc3Cl)c2=O)cc1OC`
Return: inactive

Enquiry: Kindly provide the recorded test outcome for the following compound: `CCOc1cc(C(=O)NCCc2csc3nc(-c4ccc(C)cc4)nn23)cc(OCC)c1OCC`
Return: inactive
